All values here come from the RNAGym collection of RNA variant scans (doi:10.7554/elife.80360).

B1: CPEB3 Ribozyme (parent)
chain: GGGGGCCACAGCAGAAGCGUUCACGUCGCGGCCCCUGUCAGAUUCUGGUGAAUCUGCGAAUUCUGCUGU

Variants of: B1
Experiment: self-cleavage, relative activity (ratio to wild type); higher = more cleavage; co-transcriptional
RECORDED_METRIC: self-cleavage
# output: bare number, no unit

Entry A52C A59C , self-cleavage reported as 0.527

# variant C66G U69C ; its self-cleavage = 1.01

Input C32A C39A . Output self-cleavage: 0.434

Lab note: C54U A60C gave self-cleavage of 0.211
